target: nNOS (Rattus norvegicus, UniProt P29476); construct: Rat cerebelli were used as the starting tissue; from tissue; host or cells: rat cerebellum (20,000 g supernatant of homogenate); test: NOS assay (HTS NOS assay, radioactive arginine, filter plate); assay type: biochemical; details: enzyme preparation from rat cerebelli
Quantity: inhibition at 10 µM (%)
Express it in %; write the number only.

CCN(CC)CCn1c(C2CCCN2C(=O)c2cc(OC)cc(OC)c2)c(-c2ccccc2)c2cc(Cl)ccc21 (centres unmarked)    51
CCOc1ccc(C(=O)N2CCCC2c2c(-c3ccccc3)c3cc(Cl)ccc3n2CCN(CC)CC)cc1 (centres unmarked)    41
CCN(CC)CCn1c(C2CCCN2C(=O)c2ccco2)c(-c2ccccc2)c2cc(Cl)ccc21 (centres unmarked)    45
CCN(CC)CCn1c(C2CCCN2C(=O)C2CCC2)c(-c2ccccc2)c2cc(Cl)ccc21 (centres unmarked)    38
COCCOCC(=O)N1CCCC1c1c(-c2ccccc2)c2cc(Cl)ccc2n1C (centres unmarked)    41

Req: Fill blank: measured inhibition at 10 µM of the compound CCN(CC)CCn1c(C2CCCN2C(=O)c2ccc(Cl)nc2)c(-c2ccccc2)c2cc(Cl)ccc21 (centres unmarked) is ____.
Resp: 36

Req: Fill blank: measured inhibition at 10 µM of the compound Cn1c(C2CCCN2C(=O)C2CC2)c(-c2ccccc2)c2cc(Cl)ccc21 (centres unmarked) is ____.
Resp: 35

Req: Fill blank: measured inhibition at 10 µM of the compound CCN(CC)CCn1c(C2CCCN2C(=O)c2ccc(F)cc2)c(-c2ccccc2)c2cc(Cl)ccc21 (centres unmarked) is ____.
Resp: 47
